assay: in vitro; conditions: hamster, hepatocytes
reported_property: half-life (min)

compound | recorded_number
CC(C)(C)[C@H](NC(=O)C(F)(F)F)C(=O)N1C[C@H]2[C@@H]([C@H]1C(=O)N[C@H](C#N)C[C@@H]1CCNC1=O)C2(C)C [Compound 1, nirmatrelvir] | 57.4

* * *

assay: physchem

entry_smiles | logD
CC(C)(C)[C@H](NC(=O)C(F)(F)F)C(=O)N1C[C@H]2[C@@H]([C@H]1C(=O)N[C@H](C#N)C[C@@H]1CCNC1=O)C2(C)C | 1.86
